- Assay Remarks: Confirmatory qHTS for activators (rescue) of SARS-CoV-2 Cytopathic Effect (CPE) (AID 1508606); further: nearly all actives have a fitted effect of over 70% in size
- Test Conditions: Vero E6 SARS-CoV-2 CPE rescue, viability luminescence; series mostly up to 20 µM
Inconclusive results are not listed. Calls of active or inactive are those of the source. The call rests on the fitted dose curve.
The reply should be one of these categories: active, inactive

Molecule | Class
O=C(O)c1ccc(CCCc2ccc(OCCc3ccc(F)cc3)cc2)o1 | inactive
CC[C@H](NC(=O)[C@H](CS(=O)(=O)CC1CC1)N[C@@H](c1ccc(F)cc1)C(F)(F)F)C(=O)C(=O)NC1CC1 | active
Cn1c(NC[C@@H](N)Cc2ccccc2)nc(-c2ccncc2)c(-c2ccc3ccccc3c2)c1=O | active
CCCN1CCN(c2ccc(C(=O)NC3(C(=O)NCC#N)CCCCC3)cc2)CC1 | active
CNCc1ccc(-c2cc(-c3nc(-c4ccc(S(=O)(=O)C(C)C)cc4)cnc3N)on2)cc1 | active
COc1cc(NC(=O)Nc2cccc(CNC(=O)O[C@H]3CCOC3)c2)ccc1-c1cnco1 | inactive

Could you please tell me the result logged for C[C@H](NC(=O)[C@H](Cc1ccccc1)NC(=O)OCc1ccccc1)C(=O)CF in this assay?
active

For CCCCCCC(C)(C)c1cc(O)c2c(c1)OC(C)(C)C1CC=C(CO)C[C@H]21 (some centres undefined) , what call appears in the results of this test?
active

Which outcome was assigned to CN(C)CCN(Cc1ccccc1)C(=O)c1cc(-c2ccc(F)cc2)n2nc(C(C)(C)C)cc2n1 in this test?
inactive

----------
- Assay Remarks: S16 Schwann cell viability assay (CellTiter-Glo assay) (AID 624031); further: nearly all actives have a fitted effect of over 70% in size; further: potency means the concentration at half of the fitted maximal effect
- Test Conditions: S16 rat Schwann cells viability, 24 h; series mostly up to 57.5 µM
- Procedure: Charcot-Marie-Tooth-Association [CMTA] National Center for Advancing Translational Sciences [NCATS] […] Native S16 cells were seeded in white solid-bottom 1536 well plates at between 500-750 cells/6uL in DMEM medium containing 10% FBS, w/o phenol red. […] Then one volume of CellTiter-Glo assay reagent (Promega) was added to each well for cell viability measured by a ViewLux plate reader (PerkinElmer). […]
Records with an inconclusive call do not appear. The source made the active and inactive calls. The call rests on the fitted dose curve; in most records, active means well fitted cell-killing curve with a large enough effect; inconclusive means small, poorly fitted or top-dose-only effect, or effect the other way; inactive means flat fitted curve, though single readings scatter.
Assay Metric: Potency

Compound | Assay Metric | Measured Result
COc1cc(N)c(Cl)cc1C(=O)N[C@@H]1CN2CCC1CC2 | Potency | inactive
C[C@@]12CCC(=O)C=C1C=C[C@H]1[C@H]3CC[C@](O)(CCC(=O)O)[C@]3(C)CC[C@@H]12 | Potency | inactive
CC(=O)O[C@H]1CC[C@@]2(C)C(=CC[C@@H]3[C@H]2CC[C@]2(C)C(=O)CC[C@H]32)C1 | Potency | inactive
NCC[C@H](O)C(=O)N[C@H]1C[C@@H](N)[C@@H](O[C@H]2O[C@@H](CN)[C@@H](O)[C@@H](O)[C@@H]2N)[C@@H](O[C@H]2O[C@@H](CO)[C@@H](O)[C@@H]2O)[C@@H]1O | Potency | inactive
CCNC[C@H](O)c1cccc(O)c1 | Potency | inactive

Recorded Potency of O=C1C=C2C=CC3C[C@@]2(O1)C1CCCCN31 (stereo not given in full) , please.
inactive

Can you share its Potency? I mean this compound: C=CC1CN2CCC1CC2C(OC(=O)OCC)c1ccnc2ccc(OC)cc12 (stereo not given)
inactive

# lookup: Potency of N[C@H]1C[C@H]1c1ccccc1
inactive

Please look up its Potency: C[C@]12CC[C@H](O)CC1=CCC1C2CC[C@]2(C)C(=O)CC[C@@H]12 (stereo not given in full)
inactive

Which Potency value is on record for CO[C@@H](COC(N)=O)C1=C(N2CC2)C(=O)C(C)=C(N2CC2)C1=O ?
32.2 µM (active)
